biological target: Human Calpain 2/NS1 (Homo sapiens, UniProt P17655); experiment: Biochemical inhibition of calpain 2, continuous fluorescence (FRET substrate) assay; settings: mean, read-out: Human Calpain 2/NS1 IC50 (nM)_MEAN
Sequence (P17655 whole entry): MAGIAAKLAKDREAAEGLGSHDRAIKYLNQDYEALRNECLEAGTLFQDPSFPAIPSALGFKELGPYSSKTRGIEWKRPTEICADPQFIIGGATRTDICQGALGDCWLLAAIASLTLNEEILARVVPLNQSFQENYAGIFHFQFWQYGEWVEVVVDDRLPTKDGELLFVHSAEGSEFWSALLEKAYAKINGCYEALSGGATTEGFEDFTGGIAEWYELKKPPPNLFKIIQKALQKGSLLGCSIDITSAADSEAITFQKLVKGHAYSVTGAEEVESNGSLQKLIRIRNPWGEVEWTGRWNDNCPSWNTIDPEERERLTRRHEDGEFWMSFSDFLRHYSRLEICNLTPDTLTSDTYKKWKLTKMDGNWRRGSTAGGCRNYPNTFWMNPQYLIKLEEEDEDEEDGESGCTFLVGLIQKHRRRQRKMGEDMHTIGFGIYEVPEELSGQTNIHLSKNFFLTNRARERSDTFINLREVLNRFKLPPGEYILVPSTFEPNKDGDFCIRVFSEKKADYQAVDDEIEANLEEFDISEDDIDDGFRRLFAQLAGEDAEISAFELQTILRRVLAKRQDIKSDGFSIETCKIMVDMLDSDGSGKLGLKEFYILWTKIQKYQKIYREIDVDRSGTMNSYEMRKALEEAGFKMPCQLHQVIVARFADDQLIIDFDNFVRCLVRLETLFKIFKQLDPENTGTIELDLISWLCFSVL
Sequence (P04632 whole entry partner): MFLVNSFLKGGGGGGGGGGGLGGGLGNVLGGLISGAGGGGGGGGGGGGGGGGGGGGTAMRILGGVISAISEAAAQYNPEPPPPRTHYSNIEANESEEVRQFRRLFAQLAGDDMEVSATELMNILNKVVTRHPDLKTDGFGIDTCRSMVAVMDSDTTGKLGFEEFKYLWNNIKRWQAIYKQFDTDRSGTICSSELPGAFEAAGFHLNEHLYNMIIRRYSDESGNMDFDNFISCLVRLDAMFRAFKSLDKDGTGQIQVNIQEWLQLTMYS
Listing of entries alongside the reported IC50.

Some molecules with recorded IC50:
COc1ccc(CCNC(=O)C(=O)C2CCCCOCCOCc3ccccc3C(=O)N2)cc1OC (centres unmarked) [Compound 123]    > 10000 nM
O=C[C@@H]1CCCCCOc2cccc(c2)-c2ncccc2C(=O)N1 [Compound 38]    < 3000 nM
O=C(NCc1ccc(Cl)cc1Cl)C(=O)C1CCCCOCCOCc2ccccc2C(=O)N1 (centres unmarked) [Compound 96]    > 10000 nM
O=C(NCCc1ccccn1)C(=O)C1CCCCOCCOCc2ccccc2C(=O)N1 (centres unmarked) [Compound 82]    > 10000 nM
CS(=O)(=O)c1ccc(CNC(=O)C(=O)C2CCCCOCCOCc3ccccc3C(=O)N2)cc1 (centres unmarked) [Compound 121]    3000 to 10000 nM
O=C[C@@H]1Cc2ccccc2CCCCCCOc2ccccc2C(=O)N1 [Compound 20]    < 3000 nM

# value of IC50, Human Calpain 2/NS1 (Homo sapiens, UniProt P17655), item CCOC(=O)CCNC(=O)C(=O)[C@@H]1CCCCOCCOCc2ccccc2C(=O)N1 [Compound 55] = 3000 to 10000 nM

# value of IC50, Human Calpain 2/NS1 (Homo sapiens, UniProt P17655), item O=C[C@@H]1Cc2cccc(c2)C=CCCOc2cccc(c2)-c2ncccc2C(=O)N1 [Compound 36] = < 3000 nM

====

target: Human Calpain 2/NS1 (Homo sapiens); assay: Biochemical inhibition of calpain 2, continuous fluorescence (FRET substrate) assay; conditions: mean, read-out: Human Calpain 2/NS1 IC50 (nM)_MEAN
Listing of entries alongside the reported IC50.

Just so you know, measured IC50 for CCNC(=O)C(=O)[C@@H]1C/C=C/CCCCCCc2ccccc2C(=O)N1 came out at > 10000 nM

Just so you know, measured IC50 for Cc1cccc(C)c1NC(=O)C(=O)[C@@H]1C/C=C\COCCOCc2ccccc2C(=O)N1 came out at > 10000 nM

Just so you know, measured IC50 for CCNC(=O)C(=O)[C@@H]1CCCCCCCCc2ccccc2C(=O)N1 came out at > 10000 nM

Just so you know, measured IC50 for O=C(NC1CC1)C(=O)C1CCCCOCCOCc2ccccc2C(=O)N1 (stereo not shown) came out at > 10000 nM

Just so you know, measured IC50 for CC(C)NC(=O)C(=O)[C@@H]1C/C=C\COCCOCc2ccccc2C(=O)N1 came out at > 10000 nM

Just so you know, measured IC50 for CCOC(=O)CCNC(=O)C(=O)[C@@H]1C/C=C/COCCOCc2ccccc2C(=O)N1 came out at > 10000 nM

Just so you know, measured IC50 for CN1CCN(CCCNC(=O)C(=O)C2CCCCOCCOCc3ccccc3C(=O)N2)CC1 (stereo not shown) came out at > 10000 nM

Just so you know, measured IC50 for COc1cccc(CCNC(=O)C(=O)C2CCCCOCCOCc3ccccc3C(=O)N2)c1 (stereo not shown) came out at > 10000 nM

Just so you know, measured IC50 for O=C(NCc1ccc(Cl)c(Cl)c1)C(=O)C1CCCCOCCOCc2ccccc2C(=O)N1 (stereo not shown) came out at 3000 to 10000 nM

Just so you know, measured IC50 for O=C[C@@H]1CCCCCOc2ccc(F)c(c2)-c2ccccc2C(=O)N1 came out at < 3000 nM

Just so you know, measured IC50 for O=C[C@@H]1C/C=C/CCCCCc2cccnc2C(=O)N1 came out at 3000 to 10000 nM

Just so you know, measured IC50 for O=C[C@@H]1CCCCCCOCc2ccccc2C(=O)N1 came out at < 3000 nM

Just so you know, measured IC50 for CC(C)CCNC(=O)C(=O)C1CCCCOCCOCc2ccccc2C(=O)N1 (stereo not shown) came out at 3000 to 10000 nM

Just so you know, measured IC50 for CCNC(=O)C(=O)[C@@H]1Cc2ccc(cc2)OCCCCOc2ccc3c(cnn3-c3ncccc3C(=O)N1)c2 came out at < 3000 nM

Just so you know, measured IC50 for O=C[C@@H]1C/C=C/CCCCCCCc2ccccc2C(=O)N1 came out at < 3000 nM

Just so you know, measured IC50 for O=C[C@@H]1Cc2ccccc2CCCOCc2ccccc2C(=O)N1 came out at < 3000 nM

Just so you know, measured IC50 for C[C@H](NC(=O)C(=O)C1CCCCOCCOCc2ccccc2C(=O)N1)c1cccnc1 (stereo partly shown) came out at > 10000 nM

Just so you know, measured IC50 for O=C(NCc1ccccc1)C(=O)[C@@H]1C/C=C/COCCOCc2ccccc2C(=O)N1 came out at 3000 to 10000 nM
